The origin of these recorded values is patent US20180016324A1.

# test target: T1, ZIKV (prM80E) with a C-terminal myc-myc-hexahistidine tag (Zika virus, UniProt A0A024B7W1 104-694)
# T1 construct: also called ZIKV (prM80E)-mmH; ZIKV-mmH
# assay remarks: SPR, mAb captured, 25C
Listed below: t½ values for each entry.
Provide only the numeric value, understood in min.

# input Any idea what t½ was measured for H4H25592P (antibody, V domains shown) VH: QVQLVESGGGVVQPGRSLRLSCAASGFTFSYSGMHWVRQAPGKGLEWVAVISYDGSNKYYADSVKGRFTISRDNSNNILYLQMNSLRAEDTAVYYCAKDWGGRFDPWGQGTLVTVSS VL: DIQMTQSPSSLSASVGDRVTITCRASQGISSYLAWYQQIPGKVPKLLIYAASTLHSGVPSRFSGSGSGTDFTLTISSLQPADVATYYCQKYNSAPLTFGGGTKVEIK ?
# output 17.1

# input Any idea what t½ was measured for H4H25641P (antibody, V domains shown) VH: QVQLVESGGGVVQPGRSLRLSCAASGFTFSYYGMHWVRQAPGKGLEWVAVISYDASNNYYVDSVKGRFTISRDNSKNTLYLQMNSLRAEDTAVYYCAKDYGGRFDYWGQGTLVTVSS VL: EIVLTQSPGTLSLSPGERATLSCGASQSVSSYLAWYQQKPGQTPRLLIYGASSRATGIPDRFSGSGSGTDFTLTISRLEPEDFAVYYCQQYGSSPWTFGQGTKVEIK ?
# output 1.3
